Assignment: determine reported Fold improvement of humanized parental 4K21 on macaca (TF-1 proliferation IC50) for the given binders.
# System name: T1, macaca GM-CSF (rhesus, Macaca mulatta; cynomolgus, Macaca fascicularis, identical sequence) (Macaca mulatta / Macaca fascicularis, UniProt Q0MUT8 18-144 (Chlorocebus aethiops entry), limits assumed)
# T1 chain: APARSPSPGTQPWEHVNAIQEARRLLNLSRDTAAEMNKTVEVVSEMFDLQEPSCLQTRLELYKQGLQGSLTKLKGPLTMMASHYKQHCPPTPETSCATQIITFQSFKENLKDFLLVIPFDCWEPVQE
# Method summary: cell-based or functional assay
Give bare numbers, in fold.

// solved cases for Fold improvement of humanized parental 4K21 on macaca (TF-1 proliferation IC50) follow
Binder | Measurement units | Reported value
anti-GM-CSF 4K21 hIgG1 K antibody (MSB0010259), recombinant chimeric 4K21 (antibody, V domains shown, Murine variable domains fused to human constant IgG1 heavy chain and kappa light chain domains; also called parental chimeric 4K21) VH: EVQLVESGGGLVKSGGSLKLSCAASGFAFSAYDMSWVRQTPEKRLELVAYISSGGSSFYYPDTVKGRFTISRDNAKNTLYLQMSSLKSEDTAMYYCTRHLGFDYWGQGTTLTVSS VL: DVVMTQTPLSLPVSLGDQASISCRSSQSLVNSNGNTYLHWFLQKPGQSPKLLIYKVSNRFSGVPDRFSGSGSGTDFTLKISRVEAEDLGVYFCSQSTHVPPTFGGGTKLEIK | fold | 0.7
humanized parental anti-GM-CSF 4K21 VH3-07.1AL+VK2-A3.2 hIgG1 K antibody (MSB0010439) (antibody, V domains shown, hIgG1 kappa; also called humanized parental 4K21 hVH hVL; humanized parental 4K21) VH: EVQLVESGGGLVQPGGSLRLSCAASGFAFSAYDMSWVRQAPGKRLELVAYISSGGSSFYYPDTVKGRFTISRDNAKNSLYLQMNSLRAEDTAVYYCTRHLGFDYWGQGTLVTVSS VL: DIVMTQSPLSLPVTPGEPASISCRSSQSLVNSNGNTYLHWYLQKPGQSPQLLIYKVSNRFSGVPDRFSGSGSGTDFTLKISRVEAEDVGVYYCSQSTHVPPTFGQGTKVEIK | fold | 1
4K21 hVH S55K-T62S hVL S27eY-N28I-H34S-N53R-H93F (MSB0010629) (antibody, V domains shown, Tested as IgG ('optimized 4K21 IgGs'); the humanized parent is hIgG1 kappa; also called optimized 4K21 antibody with S27eY; 4K21 (4K21 VH S55K-T62S VL S27eY-N28I-H34S-N53R-H93F)) VH: EVQLVESGGGLVQPGGSLRLSCAASGFAFSAYDMSWVRQAPGKRLELVAYISSGGKSFYYPDSVKGRFTISRDNAKNSLYLQMNSLRAEDTAVYYCTRHLGFDYWGQGTLVTVSS VL: DIVMTQSPLSLPVTPGEPASISCRSSQSLVNYIGNTYLSWYLQKPGQSPQLLIYKVSRRFSGVPDRFSGSGSGTDFTLKISRVEAEDVGVYYCSQSTFVPPTFGQGTKVEIK | fold | 19

Now for the binder whose Fold improvement of humanized parental 4K21 on macaca (TF-1 proliferation IC50) we want.
Task: Identify Fold improvement of humanized parental 4K21 on macaca (TF-1 proliferation IC50) associated with the binder 4K21 hVH S55K-T62S hVL N28I-H34S-N53R-H93F (MSB0010628) (antibody, V domains shown, Tested as IgG ('optimized 4K21 IgGs'); the humanized parent is hIgG1 kappa; also called optimized 4K21 antibody; 4K21 (4K21 VH S55K-T62S VL N28I-H34S-N53R-H93F)) VH: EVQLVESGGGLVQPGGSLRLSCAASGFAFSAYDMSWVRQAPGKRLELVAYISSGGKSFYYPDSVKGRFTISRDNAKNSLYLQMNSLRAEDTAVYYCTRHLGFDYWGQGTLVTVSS VL: DIVMTQSPLSLPVTPGEPASISCRSSQSLVNSIGNTYLSWYLQKPGQSPQLLIYKVSRRFSGVPDRFSGSGSGTDFTLKISRVEAEDVGVYYCSQSTFVPPTFGQGTKVEIK
Result: 11
